biological target: CB2 receptor (Homo sapiens); assay: CB2 competitive radioligand binding assay ([3H] WIN-55,212-2); set-up: expressed in transfected cells; host or cells: CHO-K1 cells
Sequence (P34972 whole entry): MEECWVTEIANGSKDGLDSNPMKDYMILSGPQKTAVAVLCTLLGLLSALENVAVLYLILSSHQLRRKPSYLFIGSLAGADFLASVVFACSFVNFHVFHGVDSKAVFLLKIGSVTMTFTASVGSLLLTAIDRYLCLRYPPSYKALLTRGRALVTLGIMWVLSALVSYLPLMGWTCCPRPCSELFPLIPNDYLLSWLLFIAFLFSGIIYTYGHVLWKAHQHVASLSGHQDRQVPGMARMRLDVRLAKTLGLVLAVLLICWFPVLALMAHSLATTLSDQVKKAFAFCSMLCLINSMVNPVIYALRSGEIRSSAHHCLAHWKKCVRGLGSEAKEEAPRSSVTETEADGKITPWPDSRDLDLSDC
As shown below, each of these molecules has a reported Ki value.
Just the number please, in µM, no unit attached.

**Query** Using the record for CCCCCCC(C)(C)c1cc(O)c2c(c1)OC(C)(C)[C@@H]1CC=C(C(=O)NC3CC(F)(F)C3)C[C@@H]21 [Compound 89] , report its Ki.
**Result** 0.0043

**Query** Using the record for CCCCCCC(C)(C)c1cc(O)c2c(c1)OC(C)(C)[C@@H]1CC=C(C(=O)NC#N)C[C@@H]21 [Compound 106] , report its Ki.
**Result** 0.81

**Query** Using the record for CCCCCCC(C)(C)c1cc(O)c2c(c1)OC(C)(C)[C@@H]1CC=C(C(=O)N[C@H]3C[C@H](O)C3)C[C@@H]21 [Compound 45] , report its Ki.
**Result** 0.0101

**Query** Using the record for CCCCCCC(C)(C)c1cc(O)c2c(c1)OC(C)(C)[C@@H]1CC=C(C(=O)NC(C)(C)C(F)(F)F)C[C@@H]21 [Compound 100] , report its Ki.
**Result** 0.0072

**Query** Using the record for CCCCCCC(C)(C)c1cc(O)c2c(c1)OC(C)(C)[C@@H]1CC=C(C(=O)N[C@H]3C[C@@H](O)C3)C[C@@H]21 [Compound 46] , report its Ki.
**Result** 0.0229

**Query** Using the record for CC(C)(CCCCCCO)c1cc(O)c2c(c1)OC(C)(C)[C@@H]1CC=C(C(=O)O)C[C@@H]21 [Compound 57] , report its Ki.
**Result** 0.0563

====

As shown below, each of these molecules has a reported Ki value.
biological target: UniProtKB P34972; assay: CB2 competitive radioligand binding assay ([3H] WIN-55,212-2); design: expressed in transfected cells; host or cells: CHO-K1 cells
Just the number please, in nM, no unit attached.

In [3]: df
Out[3]:
                               smiles_input  measurement_unit  observed_result
0  CCCCCCC(C)(C)c1cc(O)c2c(c1)OC(C)(C)[C@@H]1CC=C(C(=O)NS(C)(=O)=O)C[C@@H]21                nM              302
1  CCCCCCC(C)(C)c1cc(OC(C)=O)c2c(c1)OC(C)(C)[C@@H]1CC=C(C#N)C[C@@H]21                nM              1.9
2  CCCCCCC(C)(C)c1cc(O)c2c(c1)OC(C)(C)[C@@H]1CC=C(C(=O)N3CCNCC3)C[C@@H]21                nM               30

We next turn to a different molecule, shown below.
**Query** Using the record for CCCCCCC(C)(C)c1cc(O)c2c(c1)OC(C)(C)[C@@H]1CC=C(C(=O)NC(C)C)C[C@@H]21 , report its Ki.
**Result** 3.2

====

molecular target: CB1 receptor (Homo sapiens); test: cell-based; design: host or cells: PathHunter cell lines
Sequence (P21554 whole entry): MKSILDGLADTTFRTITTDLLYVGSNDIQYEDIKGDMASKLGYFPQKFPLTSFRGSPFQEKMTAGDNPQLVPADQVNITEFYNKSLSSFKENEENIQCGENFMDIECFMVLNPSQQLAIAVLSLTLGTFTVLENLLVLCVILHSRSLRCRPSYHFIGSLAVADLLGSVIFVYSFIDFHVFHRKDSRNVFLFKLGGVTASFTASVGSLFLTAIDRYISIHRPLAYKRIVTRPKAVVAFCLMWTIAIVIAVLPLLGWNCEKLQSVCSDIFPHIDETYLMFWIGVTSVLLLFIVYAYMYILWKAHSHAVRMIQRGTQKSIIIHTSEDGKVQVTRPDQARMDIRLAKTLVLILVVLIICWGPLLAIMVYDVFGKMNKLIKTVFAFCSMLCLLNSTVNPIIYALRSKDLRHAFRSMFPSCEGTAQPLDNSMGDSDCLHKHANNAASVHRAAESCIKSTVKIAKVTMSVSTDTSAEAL
As shown below, each of these compounds has a reported EC50 value.

The examples below pair each entry with its known result.
>>> print(df.to_string())
                               smiles_input                  test_target  observed_result
0  CCCCCCC(C)(C)c1cc(O)c2c(c1)OC(C)(C)[C@@H]1CC=C(C(=O)N[C@H]3C[C@H](O)C3)C[C@@H]21  CB1 receptor (Homo sapiens)          4.98 µM
1  CCCCCCC(C)(C)c1cc(O)c2c(c1)OC(C)(C)[C@@H]1CC=C(C(=O)N[C@H](Cc3ccc(O)cc3)C(=O)O)C[C@@H]21  CB1 receptor (Homo sapiens)           > 3 µM

We next turn to a different compound, shown below.
**Query** Using the record for CCCCCCC(C)(C)c1cc(O)c2c(c1)OC(C)(C)[C@@H]1CC=C(C(=O)NOC(C)(C)C)C[C@@H]21 , report its EC50.
**Result** 0.0059 µM

The reported measurements were obtained from patent US20210284621A1.
